Where these numbers come from: patent US9980948B2

Molecular target: Human AMPK α2β2γ1 (Homo sapiens, UniProt O43741+P54646)
Construct: The full length cDNAs of human AMPK β2 (NM_005399.3) and human AMPK α2 (NM_006252.3); The full length cDNAs of human AMPK β2 (NM_005399.3); the full length cDNA of human AMPK γ1 (NM_002733.3) had been inserted into pET28b(+); 6xHis (N); made in house; host or cells: Escherichia coli BL21 CodonPlus (DE3)-RTL (AMPK); BL21 Star (DE3) (CaMKKβ)
Sequence (P54646 whole entry): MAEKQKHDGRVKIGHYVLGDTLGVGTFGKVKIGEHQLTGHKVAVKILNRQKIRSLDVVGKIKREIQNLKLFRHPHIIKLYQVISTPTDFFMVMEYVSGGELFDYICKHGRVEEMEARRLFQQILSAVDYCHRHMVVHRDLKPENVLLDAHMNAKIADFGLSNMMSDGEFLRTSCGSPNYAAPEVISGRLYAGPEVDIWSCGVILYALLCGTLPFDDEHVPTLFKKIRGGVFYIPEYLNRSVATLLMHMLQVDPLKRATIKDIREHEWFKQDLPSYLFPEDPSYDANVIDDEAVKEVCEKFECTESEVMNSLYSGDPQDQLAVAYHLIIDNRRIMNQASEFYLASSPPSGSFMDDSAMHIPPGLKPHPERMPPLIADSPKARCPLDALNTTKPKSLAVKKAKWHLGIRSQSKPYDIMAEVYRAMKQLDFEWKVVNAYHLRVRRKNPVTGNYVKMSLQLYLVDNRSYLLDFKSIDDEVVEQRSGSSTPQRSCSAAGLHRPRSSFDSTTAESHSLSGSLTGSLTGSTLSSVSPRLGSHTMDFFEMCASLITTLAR
Sequence (O43741 whole entry): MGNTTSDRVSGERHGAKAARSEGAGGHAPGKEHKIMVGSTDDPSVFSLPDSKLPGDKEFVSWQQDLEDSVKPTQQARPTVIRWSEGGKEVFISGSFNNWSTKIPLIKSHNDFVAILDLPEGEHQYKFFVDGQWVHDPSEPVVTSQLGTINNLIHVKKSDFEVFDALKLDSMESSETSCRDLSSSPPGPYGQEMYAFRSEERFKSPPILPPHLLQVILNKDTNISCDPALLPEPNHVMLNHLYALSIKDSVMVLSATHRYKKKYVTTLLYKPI
Sequence (P54619 whole entry partner): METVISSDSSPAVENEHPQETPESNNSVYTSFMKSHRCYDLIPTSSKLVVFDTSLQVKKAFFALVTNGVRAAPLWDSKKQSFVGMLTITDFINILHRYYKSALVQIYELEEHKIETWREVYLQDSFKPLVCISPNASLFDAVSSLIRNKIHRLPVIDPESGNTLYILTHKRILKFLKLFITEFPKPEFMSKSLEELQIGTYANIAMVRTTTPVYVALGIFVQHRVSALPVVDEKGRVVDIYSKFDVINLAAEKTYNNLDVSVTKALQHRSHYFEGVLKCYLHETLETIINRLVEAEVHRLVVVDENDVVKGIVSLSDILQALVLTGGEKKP
Experiment: Test Example 2: evaluation of an activator for AMP-activated protein kinase (AMPK), human AMPK α2β2γ1 phosphorylated with CaMKK2, FL-Peptide 7 mobility shift
Type: biochemical
Settings: human AMPK α2β2γ1, relative to control (100%); read-out: Emax (maximum rate of increase in activity within the measurement range)
Below is a list of entries, each paired with its recorded Emax value.

{"Compound": "O[C@@H]1CO[C@H]2[C@@H]1OC[C@H]2Oc1cc2nc(-c3ccc(C4(O)CCC4)cc3)c(F)cc2[nH]1 [Compound I-2-34]", "Emax, %": 495}
{"Compound": "N#Cc1cc2[nH]c(O[C@@H]3CO[C@H]4[C@@H]3OC[C@H]4O)cc2nc1-c1ccc(C2=CCOCC2)cc1 [Compound I-2-19]", "Emax, %": 916}
{"Compound": "CS(=O)(=O)Nc1ccc(-c2ccc(-c3nc4cc(O[C@@H]5CO[C@H]6[C@@H]5OC[C@H]6O)[nH]c4cc3F)cc2)nc1 [Compound I-4-56]", "Emax, %": 396}
{"Compound": "O[C@@H]1CO[C@H]2[C@@H]1OC[C@H]2Oc1cc2nc(-c3ccc(C4CCCCO4)cc3)c(F)cc2[nH]1 (some centres unmarked) [Compound I-2-57]", "Emax, %": 484}
{"Compound": "COC(=O)NC1CCN(c2ccc(-c3nc4cc(O[C@@H]5CO[C@H]6[C@@H]5OC[C@H]6O)[nH]c4cc3F)cc2)CC1 [Compound I-4-53]", "Emax, %": 509}
{"Compound": "Cn1ncc2cc(-c3nc4cc(O[C@@H]5CO[C@H]6[C@@H]5OC[C@H]6O)[nH]c4cc3F)ccc21 [Compound I-2-69]", "Emax, %": 521}
{"Compound": "N#Cc1cc2[nH]c(O[C@@H]3CO[C@H]4[C@@H]3OC[C@H]4O)cc2nc1-c1ccc(N2CCOCC2)cc1 [Compound I-1-4]", "Emax, %": 849}
{"Compound": "COC(=O)Nc1ccc(-c2ccc(-c3nc4cc(O[C@@H]5CO[C@H]6[C@@H]5OC[C@H]6O)[nH]c4cc3F)cc2)cc1 [Compound I-4-35]", "Emax, %": 447}
{"Compound": "N#Cc1c(O[C@@H]2CO[C@H]3[C@@H]2OC[C@H]3O)[nH]c2cc(Cl)c(OCc3c(F)cccc3F)nc12 [Compound I-1-1]", "Emax, %": 660}
{"Compound": "O[C@@H]1CO[C@H]2[C@@H]1OC[C@H]2Oc1[nH]c2cc(F)c(-c3ccc(C4=CCOCC4)cc3)nc2c1Cl [Compound I-1-45]", "Emax, %": 718}
{"Compound": "Cn1cc(-c2ccc(-c3nc4c(C#N)c(O[C@@H]5CO[C@H]6[C@@H]5OC[C@H]6O)[nH]c4cc3Cl)cc2)cn1 [Compound I-2-11]", "Emax, %": 867}
{"Compound": "OC[C@@H]1C[C@H](Oc2cc3nc(-c4c(F)cc(N5CCOCC5)cc4F)c(Cl)cc3[nH]2)CO1 [Compound I-1-18]", "Emax, %": 776}
{"Compound": "CS(=N)(=O)c1ccc(-c2ccc(-c3nc4cc(O[C@@H]5CO[C@H]6[C@@H]5OC[C@H]6O)[nH]c4cc3F)cc2)cc1 (some centres unmarked) [Compound I-3-43]", "Emax, %": 538}
{"Compound": "O=C(CO)N1CC=C(c2cc(F)c(-c3nc4cc(O[C@@H]5CO[C@H]6[C@@H]5OC[C@H]6O)[nH]c4cc3Cl)c(F)c2)CC1 [Compound I-1-10]", "Emax, %": 751}
